# subjectOfTest: Dual specificity protein kinase CLK1 (Mus musculus, UniProt P22518)
# Sequence (P22518 whole entry, the tested form may be a part): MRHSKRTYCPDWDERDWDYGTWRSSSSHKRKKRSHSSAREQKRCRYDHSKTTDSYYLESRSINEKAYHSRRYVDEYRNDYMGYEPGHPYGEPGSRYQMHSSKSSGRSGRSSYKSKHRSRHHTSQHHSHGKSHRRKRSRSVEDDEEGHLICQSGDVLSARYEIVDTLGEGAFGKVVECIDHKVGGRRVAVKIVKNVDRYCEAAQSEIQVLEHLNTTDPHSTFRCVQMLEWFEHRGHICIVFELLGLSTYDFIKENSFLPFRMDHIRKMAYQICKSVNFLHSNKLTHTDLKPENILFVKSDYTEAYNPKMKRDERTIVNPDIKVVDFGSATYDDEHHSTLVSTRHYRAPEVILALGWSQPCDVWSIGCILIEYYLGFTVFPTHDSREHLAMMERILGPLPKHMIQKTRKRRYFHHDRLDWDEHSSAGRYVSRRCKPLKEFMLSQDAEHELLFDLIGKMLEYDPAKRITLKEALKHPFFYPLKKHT
# assayText: Inhibition of GST-fused mouse recombinant CLK1 expressed in Escherichia coli using GRSRSRSRSRSR peptide as substrate incubated for 30 mins in presence of ATP by scintillation counting method
Examples of compounds with documented pIC50 follow.
In textbook form, pIC50 equals minus log to base ten of the concentration in mol/L.

Worked cases, answers included:
# querySmiles, pIC50
data = [
    ("COc1ccc(NC2=N/C(=C\\c3ccc4c(c3)OCO4)C(=O)N2)cc1", 6.85),
    ("CCSC1=N/C(=C\\c2ccc3c(c2)OCO3)C(=O)N1C", 6.92),
]

// next entry
Determine from records and report pIC50 for CN1C(=O)/C(=C/c2ccc3c(c2)OCO3)N=C1N 6.85
